EXPERIMENTAL_PROTOCOL: Pharmacokinetics and biodistribution in mice after i.p. administration
Assay type: in vivo, Swiss nude mice
TEST_PARAMETERS: mouse, plasma, ip, 20 mg/kg, celecoxib, i.p. mice, plasma; read-out: Cmax
REPORTED_METRIC: Cmax (ng/mL)

molecule="Cc1ccc(-c2cc(C(F)(F)F)nn2-c2ccc(S(N)(=O)=O)cc2)cc1 [CXB, celecoxib]" result=9090

###

EXPERIMENTAL_PROTOCOL: Pharmacokinetics and biodistribution in mice after i.p. administration
Format: in vivo, Swiss nude mice
TEST_PARAMETERS: mouse, ip, 20 mg/kg, plasma
Description: Adult male and female Swiss Nu/Nu and Swiss Nu/+ mice, aged between 10-14 weeks and weighting 22-30 g, were purchased from Charles River Laboratories (Lyon, France) and maintained in local animal facilities under controlled conditions (12 hours light/dark cycle, at 20±2° C. and 50±5% of relative humidity), with free access to standard diet and water. All animal experiments were conducted in agreement with the international regulations of the European Union. […]
REPORTED_METRIC: AUC(0-t)

compound="Cc1ccc(-c2cc(C(F)(F)F)nn2-c2ccc(S(N)(=O)=O)cc2)cc1 [CXB, celecoxib]" reported_metric=AUC(0-t) result="28100 ng·h/mL"

###

EXPERIMENTAL_PROTOCOL: Pharmacokinetics and biodistribution in mice after i.p. administration
Type: in vivo, Swiss nude mice
TEST_PARAMETERS: mouse, ip, 20 mg/kg; celecoxib, i.p. mice, plasma
REPORTED_METRIC: half-life

sample_smiles=Cc1ccc(-c2cc(C(F)(F)F)nn2-c2ccc(S(N)(=O)=O)cc2)cc1 result="1.9 h"

###

Tested on: U87 cells
EXPERIMENTAL_PROTOCOL: Resazurin cytotoxicity assay in U87 / glioma cells
Type: cell-based, human
TEST_PARAMETERS: Homo sapiens, U-87 MG; free TMZ, all glioma cells; 24 hours and 72 hours
pIC50: −log10 of the molar value.
REPORTED_METRIC: pIC50

compound="Cn1nnc2c(C(N)=O)ncn2c1=O [TMZ, temozolomide]" reported_metric=pIC50 result=3.10

###

EXPERIMENTAL_PROTOCOL: Pharmacokinetics and biodistribution in mice after i.p. administration
Assay type: in vivo, Swiss nude mice
TEST_PARAMETERS: mouse, ip, 20 mg/kg; celecoxib, i.p. mice, brain
REPORTED_METRIC: Tmax

sample_smiles=Cc1ccc(-c2cc(C(F)(F)F)nn2-c2ccc(S(N)(=O)=O)cc2)cc1 reported_metric=Tmax result="1 h"

###

EXPERIMENTAL_PROTOCOL: Pharmacokinetics and biodistribution in mice after i.p. administration
Type: in vivo, Swiss nude mice
TEST_PARAMETERS: mouse, ip, 20 mg/kg; celecoxib, i.p. mice, spleen
REPORTED_METRIC: Tmax

sample_smiles=Cc1ccc(-c2cc(C(F)(F)F)nn2-c2ccc(S(N)(=O)=O)cc2)cc1 result="1 h"

###

EXPERIMENTAL_PROTOCOL: Pharmacokinetics and biodistribution in mice after i.p. administration
Assay type: in vivo, Swiss nude mice
TEST_PARAMETERS: mouse, ip, 20 mg/kg; celecoxib, i.p. mice, kidney
REPORTED_METRIC: half-life

sample_smiles=Cc1ccc(-c2cc(C(F)(F)F)nn2-c2ccc(S(N)(=O)=O)cc2)cc1 reported_metric=half-life result="2 h"

###

EXPERIMENTAL_PROTOCOL: Pharmacokinetics and biodistribution in mice after i.p. administration
Format: in vivo, Swiss nude mice
TEST_PARAMETERS: mouse, ip, 20 mg/kg; celecoxib, i.p. mice, kidney
REPORTED_METRIC: MRT (h)

sample_smiles=Cc1ccc(-c2cc(C(F)(F)F)nn2-c2ccc(S(N)(=O)=O)cc2)cc1 reported_metric=MRT result=3.05

###

EXPERIMENTAL_PROTOCOL: Pharmacokinetics and biodistribution in mice after i.p. administration
Assay type: in vivo, Swiss nude mice
TEST_PARAMETERS: mouse, ip, 20 mg/kg; celecoxib, i.p. mice, liver
REPORTED_METRIC: half-life (h)

compound="Cc1ccc(-c2cc(C(F)(F)F)nn2-c2ccc(S(N)(=O)=O)cc2)cc1 [CXB, celecoxib]" reported_metric=half-life result=2.8

###

EXPERIMENTAL_PROTOCOL: Pharmacokinetics and biodistribution in mice after i.p. administration
Assay type: in vivo, Swiss nude mice
TEST_PARAMETERS: mouse, ip, 20 mg/kg; celecoxib, i.p. mice, plasma
REPORTED_METRIC: AUC(0-inf) (ng·h/mL)

sample_smiles=Cc1ccc(-c2cc(C(F)(F)F)nn2-c2ccc(S(N)(=O)=O)cc2)cc1 result=32300

###

EXPERIMENTAL_PROTOCOL: Pharmacokinetics and biodistribution in mice after i.p. administration
Type: in vivo, Swiss nude mice
TEST_PARAMETERS: mouse, ip, 20 mg/kg; celecoxib, i.p. mice, liver
REPORTED_METRIC: MRT

sample_smiles=Cc1ccc(-c2cc(C(F)(F)F)nn2-c2ccc(S(N)(=O)=O)cc2)cc1 result="4.6 h"

###

EXPERIMENTAL_PROTOCOL: Pharmacokinetics and biodistribution in mice after i.p. administration
Assay type: in vivo, Swiss nude mice
TEST_PARAMETERS: mouse, brain, ip, 20 mg/kg, celecoxib, i.p. mice, brain; read-out: Cmax
REPORTED_METRIC: Cmax (ng/g)

sample_smiles=Cc1ccc(-c2cc(C(F)(F)F)nn2-c2ccc(S(N)(=O)=O)cc2)cc1 result=20600

###

EXPERIMENTAL_PROTOCOL: Pharmacokinetics and biodistribution in mice after i.p. administration
Format: in vivo, Swiss nude mice
TEST_PARAMETERS: mouse, liver, ip, 20 mg/kg, celecoxib, i.p. mice, liver; read-out: Cmax
REPORTED_METRIC: Cmax (ng/g)

molecule="Cc1ccc(-c2cc(C(F)(F)F)nn2-c2ccc(S(N)(=O)=O)cc2)cc1 [CXB, celecoxib]" readout_units=ng/g result=10600

###

EXPERIMENTAL_PROTOCOL: Pharmacokinetics and biodistribution in mice after i.p. administration
Assay type: in vivo, Swiss nude mice
TEST_PARAMETERS: mouse, ip, 20 mg/kg; celecoxib, i.p. mice, brain
REPORTED_METRIC: half-life (h)

compound="Cc1ccc(-c2cc(C(F)(F)F)nn2-c2ccc(S(N)(=O)=O)cc2)cc1 [CXB, celecoxib]" result=1.4

###

EXPERIMENTAL_PROTOCOL: Pharmacokinetics and biodistribution in mice after i.p. administration
Format: in vivo, Swiss nude mice
TEST_PARAMETERS: mouse, ip, 20 mg/kg; celecoxib, i.p. mice, spleen
REPORTED_METRIC: MRT (h)

sample_smiles=Cc1ccc(-c2cc(C(F)(F)F)nn2-c2ccc(S(N)(=O)=O)cc2)cc1 result=6.47

###

EXPERIMENTAL_PROTOCOL: Pharmacokinetics and biodistribution in mice after i.p. administration
Assay type: in vivo, Swiss nude mice
TEST_PARAMETERS: mouse, ip, 20 mg/kg; celecoxib, i.p. mice, brain
REPORTED_METRIC: MRT (h)

compound="Cc1ccc(-c2cc(C(F)(F)F)nn2-c2ccc(S(N)(=O)=O)cc2)cc1 [CXB, celecoxib]" reported_metric=MRT result=2
